biological target: AsPC-1 HiBiT-KRASG12D (Homo sapiens, UniProt P01116, G12D); construct: insert the HiBiT tag onto the N-terminus of one or more of the endogenous KRAS alleles; endogenous in cells; host or cells: AsPC-1 (ATCC CRL-1682), CRISPR-Cas9 knock-in clone, one tagged allele; assay: HiBiT degradation assay (G12D), AsPC-1 HiBiT-KRASG12D cells; format: cell-based; conditions: AsPC-1 HiBiT-KRASG12D cells, 24 hours treatment, HiBiT luminescence
Sequence (P01116 1-188 isoform P01116-2 G12D): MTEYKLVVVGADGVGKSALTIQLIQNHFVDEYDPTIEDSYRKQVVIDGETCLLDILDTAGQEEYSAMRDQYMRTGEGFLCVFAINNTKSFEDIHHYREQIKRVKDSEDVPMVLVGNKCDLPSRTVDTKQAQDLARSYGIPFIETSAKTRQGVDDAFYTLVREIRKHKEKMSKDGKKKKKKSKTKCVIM
endpoint-label: DC50

# molecule, endpoint-result
data = [
    ("CCc1cccc2cc(O)cc(-c3ncc4c(N5CC6CCC(C5)N6)nc(OCCN5CCC(N(C)c6cc([C@@H](C(=O)N7C[C@H](O)C[C@H]7C(=O)N[C@@H](C)c7ccc(-c8scnc8C)cc7)C(C)C)on6)CC5)nc4c3F)c12 (relative stereo)", "1000 to 3000 nM"),
    ("C#Cc1c(F)ccc2cc(O)cc(-c3ncc4c(N5CC6CCC(C5)N6)nc(OC[C@]56CCCN5[C@H](COC(=O)N5CC(Oc7cc([C@@H](C(=O)N8C[C@H](O)C[C@H]8C(=O)N[C@@H](C)c8ccc(-c9scnc9C)cc8)C(C)C)on7)C5)CC6)nc4c3F)c12", "< 600 nM"),
    ("CCc1cccc2cc(O)cc(-c3ncc4c(N5CC6CCC(C5)N6)nc(OC[C@@]56CCCN5[C@H](COc5cc([C@H](C(=O)N7C[C@H](O)C[C@H]7C(=O)N[C@@H](C)c7ccc(-c8scnc8C)cc7)C(C)C)on5)CC6)nc4c3F)c12", "< 600 nM"),
    ("CCc1cccc2cc(O)cc(-c3ncc4c(N5CC6CCC(C5)N6)nc(OC[C@@H]5CN(CC6CN(c7cc([C@H](C(=O)N8C[C@H](O)C[C@H]8C(=O)N[C@@H](C)c8ccc(-c9scnc9C)cc8)C(C)C)on7)C6)CCN5C)nc4c3F)c12", "< 600 nM"),
    ("CCc1cccc2cc(O)cc(-c3ncc4c(N5CC6CCC(C5)N6)nc(N5CC(CN6CCC(CC7CN(c8cc([C@@H](C(=O)N9C[C@H](O)C[C@H]9C(=O)N[C@@H](C)c9ccc(-c%10scnc%10C)cc9)C(C)C)on8)C7)CC6)C5)nc4c3F)c12", "> 3000 nM"),
    ("C#Cc1c(F)ccc2cc(O)cc(-c3ncc4c(N5CC6CCC(C5)N6)nc(OCCN5CCC(COc6cc([C@H](C(=O)N7C[C@H](O)C[C@H]7C(=O)N[C@@H](C)c7ccc(-c8ccnn8C)cc7)C(C)C)on6)CC5)nc4c3F)c12 (relative stereo)", "< 600 nM"),
    ("CCc1cccc2cc(O)cc(-c3ncc4c(N5CC6CCC(C5)N6)nc(OC[C@@]56CCCN5[C@H](COC(=O)N5CCN(c7cc([C@@H](C(=O)N8C[C@H](O)C[C@H]8C(=O)N[C@@H](C)c8ccc(-c9scnc9C)cc8)C(C)C)on7)CC5)CC6)nc4c3F)c12", "< 600 nM"),
    ("C#Cc1c(F)ccc2cc(O)cc(-c3ncc4c(N5CC6CCC(C5)N6)nc(OCCN5CCC(CCOc6cc([C@@H](C(=O)N7C[C@H](O)C[C@H]7C(=O)N[C@@H](C)c7ccc(-c8scnc8C)cc7)C(C)C)on6)CC5)nc4c3F)c12", "< 600 nM"),
]
